# targetDesc: UDP-3-O-acyl-N-acetylglucosamine deacetylase (Escherichia coli K-12, UniProt P0A725)
# Sequence (P0A725 whole entry): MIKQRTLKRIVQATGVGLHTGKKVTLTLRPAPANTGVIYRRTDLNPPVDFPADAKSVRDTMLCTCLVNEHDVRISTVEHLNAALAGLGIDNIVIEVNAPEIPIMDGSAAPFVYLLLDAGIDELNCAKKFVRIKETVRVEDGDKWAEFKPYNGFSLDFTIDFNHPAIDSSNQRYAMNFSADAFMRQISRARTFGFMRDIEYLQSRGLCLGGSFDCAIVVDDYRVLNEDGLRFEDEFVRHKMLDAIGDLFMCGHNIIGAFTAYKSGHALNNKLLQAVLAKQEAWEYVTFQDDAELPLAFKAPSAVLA
# testProtocol: Inhibition of UDP-3-O-[R-3-hydroxymyristoyl]-GlcNAc deacetylase using direct deacetylase assay (DEACET) in Escherichia coli strain JB 1104
Binning scheme for IC50: low range (below 0.1 µM), mid range (0.1 µM to below 6 µM), high range (6 µM or more)

Could you tell me which band COc1cc(C2=N[C@@H](C(=O)NO)CO2)cc(OC)c1OC belongs to?
mid range

Could you tell me which band O=C(NO)C1COC(c2ccncc2)=N1 (stereo not drawn) belongs to?
high range

Could you tell me which band CCCc1cccc(C2=N[C@@H](C(=O)NO)CO2)c1 belongs to?
mid range

Could you tell me which band CCCc1cc(C2=NC(C(=O)NO)CO2)ccc1OC (stereo not drawn) belongs to?
mid range

Could you tell me which band O=C(NO)C1COC(c2cccnc2)=N1 (stereo not drawn) belongs to?
high range

Could you tell me which band O=C(NO)C1COC(c2ccccc2)=N1 (stereo not drawn) belongs to?
high range

Could you tell me which band CCCc1cc(C2=NC(C(=O)NO)CO2)cc(OCc2ccccc2)c1OC (stereo not drawn) belongs to?
low range

Could you tell me which band COc1ccc(C2=N[C@@H](C(=O)NO)CO2)cc1 belongs to?
mid range

Could you tell me which band O=C(NO)C1COC(c2c(Cl)cccc2Cl)=N1 (stereo not drawn) belongs to?
high range

Could you tell me which band CCCc1cc(C2=NC(C(=O)NO)CO2)cc(OC)c1OC (stereo not drawn) belongs to?
low range

Could you tell me which band CCCc1cc(C2=N[C@@H](C(=O)NO)CO2)cc(OC)c1OC belongs to?
low range

----------
Task for the reader: assign each of the following compounds its reported MIC.
# System: Escherichia coli
# testProtocol: Antibacterial activity against Escherichia coli was determined
# Type: functional
# value in µg/mL; strip the unit string

Which MIC is reported with Escherichia coli for this entry: CCCc1cccc(C2=N[C@@H](C(=O)NO)CO2)c1 ?
12.5

Which MIC is reported with Escherichia coli for this entry: CCCc1cc(C2=NC(C(=O)NO)CO2)cc(OCc2ccccc2)c1OC (stereo not given) ?
25

Which MIC is reported with Escherichia coli for this entry: CCCc1cc(C2=NC(C(=O)NO)CO2)ccc1OC (stereo not given) ?
12.5

Which MIC is reported with Escherichia coli for this entry: CCCc1cc(C2=NC(C(=O)NO)CO2)cc(O)c1OC (stereo not given) ?
12.5

----------
Task for the reader: assign each of the following compounds its reported pIC50.
# targetDesc: UDP-3-O-acyl-N-acetylglucosamine deacetylase (Escherichia coli K-12, UniProt P0A725)
# testProtocol: Inhibition of UDP-3-O-[R-3-hydroxymyristoyl]-GlcNAc deacetylase using coupled radiochemical assay (WAVE) in Escherichia coli strain JB 1104
# experimentalParameters: read-out: IC50
pIC50: −log10 of the molar value.

GET /values?readout=pIC50&item= O=C(O)C1COC(c2ccccc2)=N1 (stereo not drawn)
< 3.40

GET /values?readout=pIC50&item= CN(O)C(=O)[C@H]1COC(c2ccccc2)=N1
< 3.40

GET /values?readout=pIC50&item= CN(OCc1ccccc1)C(=O)[C@H]1COC(c2ccccc2)=N1
< 3.40
